- test_method_notes: PSAC antagonists in infected red cells, primary screen, cell-based, P. falciparum Indochina, OD700, 2 h (AID 1155);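 note: lysis reports solute entry through the parasite surface anion channel PSAC; channel blockers reduce lysis of infected cells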
- test_conditions: P. falciparum Indochina infected erythrocytes, osmotic lysis OD700; higher = more signal, called active from +8 up or from −8 down
I would appreciate it if you labelled entries Condition met when z-score is 1 or higher, otherwise Condition not met.

Consider the following illustrative entries.
CCOC(=O)C1=C[C@@H](CC)N(S(=O)(=O)c2ccc(C)cc2)[C@H]1c1ccccc1	Condition not met
CC(=O)NCCCC[C@@H]1NC(=O)[C@H]2C[C@@H](C(=O)NCCCCCC[N+](C)(C)C)[C@@H](c3cccc(OCCO)c3)N2C1=O	Condition not met

Quick check, z-score >= 1? COC(=O)[C@]1(Cc2ccccc2N=[N+]=[N-])N=C(c2ccc(OCCCO)cc2)O[C@@H]1c1ccccc1N=[N+]=[N-] Condition met

Quick check, z-score >= 1? COc1ccc(C(=O)Nc2cccc(CN3C(=O)[C@@]4(O[C@@H](CCn5cc(CCO)nn5)[C@H]([Si](C)(C)c5ccc(OC)cc5)[C@H]4C)c4ccccc43)c2)cc1 Condition met

Quick check, z-score >= 1? CC(C)C(O)C1C=CC2C(=O)N(c3ccccc3)C(=O)C2N1Nc1ccc(C#N)cc1 (configuration not stated) Condition met

Quick check, z-score >= 1? O=C1C[C@]2(c3ccc([N+](=O)[O-])cc3)C(=O)N(CC(F)(F)F)c3cc(CO)ccc3[C@H]2N1CC12CC3CC(CC(C3)C1)C2 Condition not met

Quick check, z-score >= 1? C#CCN(C(/C=C/c1ccccc1)CO)C(C(=O)O)c1ccccc1 (configuration not stated) Condition not met

---

- measured_on: Homeobox protein Hox-A13 (Mus musculus)
- test_method_notes: inhibitors of HoxA13-DNA binding, primary screen, biochemical, fluorescence polarization, labeled oligonucleotide (AID 1185)
- test_conditions: 15 min, higher = more signal, called active from +8 up or from −8 down
Active and inactive are the calls of the source.
metric: z-score

COCCOC(=O)N1C(=O)[C@@]2(c3cc(C#CCNC(N)=O)ccc31)[C@H](c1ccccc1OCCO)N1[C@H](c3ccccc3)[C@H](c3ccccc3)OC(=O)[C@H]1[C@@H]2C(N)=O	-2.6 (inactive)
COCCOC(=O)N1C(=O)[C@@]2(c3cc(C#CCNC(N)=O)ccc31)[C@H](c1ccc(OCCO)cc1)N1[C@H](c3ccccc3)[C@H](c3ccccc3)OC(=O)[C@H]1[C@@H]2C(=O)N1CCc2cc(OC)c(OC)cc2C1	1.91 (inactive)

Measured z-score of CCCCC=C[C@@H](NC(=O)c1ccco1)c1ccccc1 : -0.806 (inactive)

---

Listing of recorded z-score by entry.
- measured_on: NADPH oxidase 5 (Homo sapiens)
- test_method_notes: NOX5-dependent H2O2 signal modulators, primary screen, NOX inhibitor project, cell-based, HEK293-NOX5, Amplex Red fluorescence (AID 1161)
- test_conditions: HEK293-NOX5, ionomycin, 45 min, higher = more signal
Answer with a bare number; do not write a unit.

Take a look at these entries with their results.
O=C1OCCC/C=C\[C@H]2OC34C=CCN(Cn5nnc6ccccc65)C(=O)[C@H]3N(CCCCCO)C(=O)[C@@H]4C12 (stereo partly specified)	1.15
COCCOC(=O)N1C(=O)[C@@]2(c3cc(C#CCNC(N)=O)ccc31)[C@H](C(=O)N1CCc3cc(OC)c(OC)cc3C1)[C@H]1C(=O)O[C@H](c3ccccc3)[C@H](c3ccccc3)N1[C@@H]2c1ccc(OCCO)cc1	-0.0832
O=C1[C@]2(CO)C=C(Br)[C@@H](C[C@@H]2c2ccccc2)[C@@]12CO2	-0.211
COc1ccc(C#Cc2ccc3c(c2)[C@]2(C(=O)N3)[C@H](c3ccc(O)cc3)N3[C@H](c4ccccc4)[C@H](c4ccccc4)OC(=O)[C@H]3[C@@H]2C(=O)NC[C@H](O)c2ccccc2)cc1	0.22
CCCCCCc1nc(CCCc2cc3c(c(CCCCCC)n2)[Si](C(C)C)(C(C)C)OC3)cc2c1[Si](C(C)C)(C(C)C)OC2	-3.41

Lab note: compound O=C1O[C@@H](c2ccccc2)[C@@H](c2ccccc2)N2[C@@H](c3ccc(O)cc3)[C@]3(C(=O)Nc4ccc(C#CC5(O)CCCCCC5)cc43)[C@@H](C(=O)N3CCCCCCC3)[C@H]12 tested on NADPH oxidase 5 (Homo sapiens); recorded z-score was 0.682

---

- measured_on: Calmodulin-1 (Homo sapiens) (UniProt P0DP23)
- test_method_notes: CALM1 binders on microarrays, EGTA buffer, profiling panel, biochemical, small-molecule microarray, Cy5-labelled CALM1 (AID 1111);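 note: labelled calmodulin applied in Tris saline Tween buffer holding calcium plus EGTA and DTT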
- test_conditions: Cy5-CALM1 binding fluorescence, higher = more signal
I would appreciate it if you labelled entries Fulfilled when composite z-score is 0.5 or higher, otherwise Not fulfilled.

CCCC[C@H]1OB(O)C[C@H]2C1=C(C)C[C@H]1C(=O)N(Cc3ccccc3)C(=O)[C@H]12	Not fulfilled
CC1CC/C=C\[C@H]2OC34C=CCN(Cc5ccccc5)C(=O)[C@H]3N(CCCCCO)C(=O)[C@@H]4C2C(=O)O1 (stereo partly specified)	Not fulfilled

Quick check, composite z-score >= 0.5? C=CCOC(=O)[C@H]1[C@@H]2C(=O)O[C@@H](c3ccccc3)[C@@H](c3ccccc3)N2[C@@H](c2ccc(OCCOC(=O)[C@@H]3C[C@@H]4C(=O)NCC(=O)N4[C@@H]3c3ccc(O)cc3)cc2)[C@]12C(=O)Nc1ccccc12 Not fulfilled

Quick check, composite z-score >= 0.5? Cc1ccc([C@H]2C(C(=O)O)=C[C@@H](C)N2S(=O)(=O)c2ccc(C)cc2)cc1 Fulfilled

---

- test_method_notes: modulators of HCV replicon luciferase signal, primary screen, HCV replication inhibitor project, Huh7 cells, luciferase reporter (AID 1109);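 note: huh7 hepatoma cells harbouring a luciferase neomycin HCV replicon reporter; luciferase luminescence as measure of HCV replicon replication; test concentration not given here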
- test_conditions: 48 h, higher = more signal
metric: z-score
Answer with a bare number; do not write a unit.

Take a look at these entries with their results.
COCCOC(=O)N1C(=O)[C@@]2(c3cc(C#CCNC(N)=O)ccc31)[C@H](c1ccc(O)cc1)N1[C@H](c3ccccc3)[C@H](c3ccccc3)OC(=O)[C@H]1[C@@H]2C(=O)Nc1nc2ccccc2s1	0.171
CS(=O)(=O)CCOC(=O)C1=CC(CCCO)=CC(c2cccs2)N(Cc2cc3c(cc2Br)OCO3)C=C1C(=O)OCCS(C)(=O)=O (stereo not drawn)	-1.22
[N-]=[N+]=NCc1ccccc1C[C@]1(C(=O)NCC(O)CO)N=C(c2ccc(OCCCO)cc2)O[C@H]1c1ccccc1N=[N+]=[N-] (stereo partly drawn)	-1.47
O=C1O[C@@H](c2ccccc2)[C@@H](c2ccccc2)N2[C@@H](c3ccc(OCCO)cc3)[C@]3(C(=O)Nc4ccccc43)[C@@H](C(=O)Nc3nc4ccccc4s3)[C@H]12	-2.66
CC(C)(C)N1CC=CC23O[C@@H]4/C=C\CCCOC(=O)C4[C@H]2C(=O)N(CCO)[C@@H]3C1=O (stereo partly drawn)	-0.95
COCCOC(=O)N1C(=O)[C@@]2(c3cc(C#CC4=CCCCC4)ccc31)[C@H](C(=O)NC[C@H](O)c1ccccc1)[C@H]1C(=O)O[C@H](c3ccccc3)[C@H](c3ccccc3)N1[C@@H]2c1ccc(O)cc1	-1.84

Measured z-score of CCOC(=O)C[C@H]1[C@H](OC(=O)Cc2ccc3c(c2)OCO3)[C@@H](NC(=O)C2CCCCC2)c2cc(OCCCO)ccc2N1C(=O)Cc1ccc(OC)cc1 : -1.39

Measured z-score of Cc1cc(C)c(C(O)C2C=CC3C(=O)N(C)C(=O)C3N2Nc2ccccc2)c(C)c1 (stereo not drawn) : 0.228

Measured z-score of COc1cccc(C(=O)O[C@H]2CC[C@]3(C)C4=C(CCC3C2(C)C)[C@]2(C)CC[C@H]([C@H](C)CCCC(C)C)[C@@]2(C)CC4)c1 (stereo partly drawn) : 0.004

Measured z-score of C=CCC(OC(C)=O)[C@@H]1[C@@H](N(Cc2ccc(-c3ccccc3)cc2)C(=O)Cc2ccc(F)cc2)c2cc(OCCCO)ccc2N1C(=O)c1ccc2ccccc2n1 (stereo partly drawn) : -0.213

Measured z-score of C=CCC(OC(C)=O)[C@@H]1[C@@H](N(Cc2ccc(-c3cccc(C(F)(F)F)c3)o2)C(=O)c2ccc(C)cc2)c2cc(OCCCO)ccc2N1C(=O)c1ccc(-c2ccccc2)cc1 (stereo partly drawn) : -0.094

Measured z-score of Cc1ccc(S[C@]2(C(=O)NC3CC3)CC(=O)N(Cc3ccccc3)[C@@H]2c2ccc(CO)cc2)cc1 : -0.921

Measured z-score of CCOC(=O)[C@H]1C[C@H]2O[C@@]23C[C@H]1C(=O)N1CCCC1[C@@H]3O[Si](C)(C)C(C)(C)C (stereo partly drawn) : -0.633

---

- test_method_notes: inhibitors of hydroxyurea-induced Chk1 phosphorylation, primary screen, imaging, HeLa, phospho-Chk1 nuclear intensity (AID 1187); note: test concentration not given here
- test_conditions: hydroxyurea-induced phospho-Chk1 immunofluorescence imaging, higher = more signal
metric: z-score
Answer with a bare number; do not write a unit.

Take a look at these entries with their results.
CN1C(=O)C2C(C1=O)C1C=C(CCCO)C2C(c2cccs2)N1C (stereo not drawn)	-0.0851
CCCN1C(=O)[C@@]2(CCC(=O)OC(C)(C)C)N=C(c3ccc(OCCCO)cc3)O[C@H]2c2ccccc21	0.261
COc1ccc([Si](C)(C)[C@@H]2[C@@H](CC(=O)N3CCC[C@H]3CO)O[C@]3(C(=O)N(C)c4c(Br)cc(C)cc43)[C@H]2C)cc1	-0.466
COC(=O)C1=CC(CCCO)=CC(C2CC2)N(Cc2sc3ccccc3c2Cl)C=C1C(=O)OC (stereo not drawn)	0.263
CC(C)CNC(=O)[C@@H]1c2ccccc2C(=O)N(Cc2cc(C(F)(F)F)cc(C(F)(F)F)c2)[C@H]1c1ccc(CO)cc1	0.21
C=CC(=C)C1=CCO[C@@H]1[C@H]1CCCN1S(=O)(=O)c1ccccc1[N+](=O)[O-]	0.0588

Measured z-score of COc1ccccc1CN1C(=O)c2ccccc2[C@@H](C(=O)NCCN2CCOCC2)[C@@H]1c1ccc(CO)cc1 : 0.531

Measured z-score of O=c1cccc(C=Cc2ccccc2)o1 : -0.0437
